test system: SW480 colon carcinoma cells; experiment: Cell viability assay (CellTiter-Glo); settings: Homo sapiens, SW480, read-out: percent inhibition at 10 μM
readout.kind: inhibition at 10 µM (%)
The reply should be a number in %, with the unit left off.

[in] For O=C(Nc1cc2nc(-c3cnco3)ccc2cn1)[C@H]1CC[C@H](CO)CC1 [Compound 4548] , write its inhibition at 10 µM.
[out] 29.8

[in] Tell us which inhibition at 10 µM value is on record for CC(C(=O)Nc1cc2cc(-c3cnn(C)c3)cnc2cn1)N1CCCCC1 (centres unmarked) [Compound 2791]
[out] 24.8

[in] Specify reported inhibition at 10 µM for the compound shown: CC(C)CN1CCC(C(=O)Nc2cc3nc(-c4cnn(C)c4)ccc3cn2)CC1 [Compound 16]
[out] 45.1

[in] Given the compound CC(F)(F)CN1CCC(C(=O)Nc2cc3cc(-c4cnco4)ncc3cn2)CC1 [Compound 4167] , write its reported inhibition at 10 µM.
[out] 11.9

[in] Find the measured inhibition at 10 µM of Cc1ncc(-c2ccc3cnc(NC(=O)C4CCN(C(=O)CN5CCCC5)CC4)cc3n2)s1 [Compound 4561] and report it.
[out] 49.5

[in] Given O=C(Nc1ncc2ccc(-c3cncs3)cc2n1)C1CCN(C2COC2)CC1 [Compound 1523] , respond with its inhibition at 10 µM.
[out] 15.1

[in] Give reported inhibition at 10 µM value for CC(C)Oc1ccc(C(=O)Nc2cc3cc(-c4cnc5n4CCNC5)ncc3cn2)cc1 [Compound 4150]
[out] 32.7

[in] Entry CN1CCCN(CC(=O)Nc2cc3cc(-c4cnn(C)c4)cnc3cn2)CC1 [Compound 2826] needs its inhibition at 10 µM filled in; supply it.
[out] 20.4

* * *

I'd be grateful if you could share measured pEC50 for these entries.
test system: α-smooth muscle actin (aSMA) positive LL29 cells; assay: Inhibition of the fibrotic process: αSMA staining in TGF-β1 treated LL29 fibroblasts from IPF patients; conditions: Homo sapiens, Fibroblast, 96 h
pEC50: −log10 of the molar value.

[in] Provide pEC50 value for the following compound: CC(C(=O)Nc1cc2nc(-c3cnn(C)c3)ccc2cn1)N1CCCCC1 (centres unmarked)
[out] < 5.00

[in] Using known records, supply pEC50 for "CO[C@H]1CC[C@H](C(=O)Nc2cc3cc(-c4nnc(C)s4)cnc3cn2)CC1"
[out] < 5.00

[in] Respond only with pEC50 recorded for "CN1CCN(c2cc(C(=O)Nc3cc4cc(-c5cnn(C)c5)cnc4cn3)ccn2)CC1"
[out] 5.27

[in] State its pEC50: "O=C(Nc1ncc2ccc(-c3cncs3)cc2n1)C1CCN(C(=O)CN2CCCC2)CC1"
[out] 5.32

[in] Give pEC50 for "Cn1cc(-c2ccc3cnc(NC(=O)CN4CCOCC4)nc3c2)cn1"
[out] < 5.00

[in] State its pEC50: "Cn1cncc1-c1cc2cc(NC(=O)c3ccc(F)cc3)ncc2cn1"
[out] < 5.00

[in] Could you please provide reported pEC50 for "Cn1cncc1-c1cc2cc(NC(=O)c3cccc(CN4CCCC4)c3)ncc2cn1" ? Thanks!
[out] 5.99

[in] Return the recorded pEC50 value; entry: "Cn1cc(-c2ccc3cnc(NC(=O)c4ccc(OC5CCNCC5)cc4)nc3c2)nn1"
[out] < 5.00

* * *

Would you mind telling me the reported EC50 of each entry?
system: α-smooth muscle actin (aSMA) positive LL29 cells; assay: Inhibition of the fibrotic process: αSMA staining in TGF-β1 treated LL29 fibroblasts from IPF patients; details: Homo sapiens, Fibroblast, 96 h
Number in µM, nothing else.

[in] Give reported EC50 value for "CN1CCC(n2cc(C(=O)Nc3cc4nc(-c5cncc6[nH]ccc56)ccc4cn3)cn2)CC1"
[out] 0.335

[in] For the compound "CN1CCC(Oc2ccc(C(=O)Nc3cc4nc(-c5cnn(C)c5)ccc4cn3)cc2)CC1" , give its reported EC50.
[out] 0.369

[in] Annotate the compound "O=C(Nc1cc2cc(-c3cncc(OCC4CNC4)n3)cnc2cn1)c1ccc(F)cc1" with its measured EC50.
[out] 3.9

[in] Please report EC50 for the following compound: "CN1CCN(c2ccc(C(=O)Nc3cc4cc(-c5cnn(C)c5)cnc4cn3)cn2)CC1"
[out] 9.77

* * *

molecular target: DYRK1A kinase (Homo sapiens); assay: DYRK1A kinase activity (Ser/Thr 18 peptide Z-lyte FRET assay); conditions: recombinant DYRK1A, 30 μM ATP, one hour at room temperature;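 further: kinase activity read as coumarin/fluorescein emission ratio after development step, with unphosphorylated and phosphorylated peptide forms setting 0% and 100% controls, values from dose-response curves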
Consider the cut-off 30 nM. If the recorded EC50 is strictly smaller, the label is Fulfilled; if not, the label is Not fulfilled.

[in] Does "CN1CCN(c2cc(C(=O)Nc3cc4cc(-c5cnn(C)c5)cnc4cn3)ccn2)CC1" have EC50 strictly under 30 nM?
[out] Not fulfilled

[in] Consider the compound CC(C(=O)Nc1cc2nc(-c3cnn(C)c3)ccc2cn1)N1CCCCC1 (centres unmarked) . Is its EC50 strictly less than 30 nM?
[out] Not fulfilled

[in] Identify whether the compound "CN1CCN(c2ccc(C(=O)Nc3cc4nc(-c5cnn(C)c5)ccc4cn3)cn2)CC1" records EC50 below 30 nM.
[out] Fulfilled

[in] Criterion: EC50 strictly below 30 nM. Is it met by "CN1CCCN(CC(=O)Nc2cc3cc(-c4cnn(C)c4)cnc3cn2)CC1" ?
[out] Not fulfilled

[in] Lab note: confirm whether the reported EC50 for this compound is below 30 nM, equality not counting. compound: "Cn1cc(-c2ccc3cnc(NC(=O)c4ccnc(OC5CCNCC5)c4)nc3c2)cn1"
[out] Fulfilled

[in] Problem: For the compound "CN(C)[C@H]1CC[C@H](C(=O)Nc2cc3cc(-c4cncs4)cnc3cn2)CC1" , is EC50 under 30 nM?
[out] Fulfilled

[in] Quick check: does "Cn1cc(-c2ccc3cnc(NC(=O)c4ccc(OC5CCNCC5)cc4)nc3c2)nn1" have EC50 under 30 nM?
[out] Fulfilled

[in] # strict comparison: is reported EC50 < 30 nM? input = "Cc1nnc(-c2ccc3cnc(NC(=O)c4ccnc(N5CCN(C)CC5)c4)nc3c2)s1"
[out] Not fulfilled

* * *

Would you mind telling me the reported inhibition at 10 µM of each entry?
tested on: SW480 colon carcinoma cells; experiment: Cell viability assay (CellTiter-Glo); conditions: Homo sapiens, SW480, read-out: percent inhibition at 10 μM
Write the quantity with the unit trailing the number.

[in] Specify reported inhibition at 10 µM for the molecule shown: Cc1ncc(-c2ccc3cnc(NC(=O)[C@H]4CC[C@H](CO)CC4)nc3c2)o1 [Compound 1447]
[out] 8.5%

[in] Give inhibition at 10 µM for CC(C)Oc1ccc(C(=O)Nc2ncc3ccc(-c4cnc5n4CCN(C)C5)cc3n2)cc1 [Compound 4577]
[out] 19.7%

[in] Return the recorded inhibition at 10 µM value; entry: O=C(Nc1cc2nc(-c3cncs3)ccc2cn1)c1ccncc1 [Compound 625]
[out] 47.8%

[in] Identify measured inhibition at 10 µM associated with CN1CCCN(CC(=O)Nc2ncc3ccc(-c4cnn(C)c4)cc3n2)CC1 [Compound 1013]
[out] 10.5%

* * *

tested on: α-smooth muscle actin (aSMA) positive LL29 cells; experiment: Inhibition of the fibrotic process: αSMA staining in TGF-β1 treated LL29 fibroblasts from IPF patients; conditions: Homo sapiens, Fibroblast, 96 h
pEC50: −log10 of the molar value.
readout.kind: pEC50

[in] # lookup: α-smooth muscle actin (aSMA) positive LL29 cells pEC50, key = O=C(Nc1cc2cc(-c3cncc(NC4CCNCC4)n3)ncc2cn1)C1CCOCC1 [Compound 4504]
[out] 6.42

[in] Output reported pEC50 of the molecule Cn1cc(-c2cnc3cnc(NC(=O)C4CCN(S(C)(=O)=O)CC4)cc3c2)cn1 [Compound 2792] on α-smooth muscle actin (aSMA) positive LL29 cells.
[out] < 5.00

[in] Answer with pEC50 of Cn1cncc1-c1cnc2cnc(NC(=O)c3cccc(CN4CCCC4)c3)cc2c1 [Compound 3259] measured for α-smooth muscle actin (aSMA) positive LL29 cells.
[out] < 5.00

[in] Report pEC50 from α-smooth muscle actin (aSMA) positive LL29 cells testing of Cn1cc(-c2cnc3cnc(NC(=O)C4CCN(CC5(C(F)(F)F)CC5)CC4)cc3c2)nn1 [Compound 3067]
[out] < 5.00

* * *

target: GSK3β kinase (Homo sapiens); test: GSK3β kinase activity (Ser/Thr 09 peptide Z-lyte FRET assay); format: biochemical; settings: recombinant kinase, 46 μM ATP, one hour at room temperature; read-out: EC50
Sequence (P49841 whole entry): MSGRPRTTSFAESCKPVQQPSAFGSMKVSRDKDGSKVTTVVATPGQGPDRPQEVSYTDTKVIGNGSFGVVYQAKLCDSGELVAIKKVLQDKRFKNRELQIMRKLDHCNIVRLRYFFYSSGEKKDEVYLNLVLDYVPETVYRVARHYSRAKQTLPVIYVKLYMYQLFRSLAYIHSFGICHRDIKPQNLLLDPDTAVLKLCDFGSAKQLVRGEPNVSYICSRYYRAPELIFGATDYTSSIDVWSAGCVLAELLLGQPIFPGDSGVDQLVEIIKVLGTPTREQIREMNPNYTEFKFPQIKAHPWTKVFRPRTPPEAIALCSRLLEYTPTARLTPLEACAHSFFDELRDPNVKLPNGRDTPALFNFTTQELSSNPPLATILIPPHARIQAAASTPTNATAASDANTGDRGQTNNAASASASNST
pEC50: −log10 of the molar value.
Decide by pEC50: equal to or exceeding 6 means class 1, less means class 0.

[in] Given "Cn1cnnc1-c1ccc2cnc(NC(=O)C3CCN(CCC(F)(F)F)CC3)nc2c1" , state whether its pEC50 is at least 6.
[out] class 1

[in] Say whether "O=C(Nc1ncc2ccc(-c3cccnc3)cc2n1)C1CC1" shows pEC50 of 6 or more.
[out] class 1

[in] Answer whether pEC50 of "Cn1cc(-c2cnc3cnc(NC(=O)C4CCN(Cc5ncccn5)CC4)cc3c2)cn1" is greater than or equal to 6.
[out] class 0

[in] # bool: pEC50 of "Cn1cc(-c2ccc3cnc(NC(=O)C4CCNCC4)nc3c2)cn1" >= 6
[out] class 1

[in] Record "Cn1cc(-c2ccc3cnc(NC(=O)C4CCN(CC5(C(F)(F)F)CC5)CC4)cc3n2)nn1" ; criterion: pEC50 no lower than 6. Met?
[out] class 0

[in] Given "CN1CCC(Oc2cccc(C(=O)Nc3cc4cc(-c5cnco5)cnc4cn3)c2)CC1" , state whether its pEC50 is at least 6.
[out] class 0

[in] Answer whether pEC50 of "Cn1cc(-c2ccc3cnc(NC(=O)[C@H]4CC[C@H](NCCF)CC4)cc3n2)cn1" is greater than or equal to 6.
[out] class 1
